organism: Rattus norvegicus; assay: DrugMatrix - Regimen: Daily Repeat; format: toxicity, organism-based, Sprague-Dawley; parameters: regimen Daily Repeat, gender Male, age 6-8 weeks; settings: in vivo, po, 1500 mg/kg, 72 h, tissue Blood, route oral GAVAGE, dose level High, time 3 day, vehicle .5 % CMC
quantity measured: MEAN CORPUSCULAR VOLUME (fL)
Number in fL, nothing else.

Task: Could you tell me which MEAN CORPUSCULAR VOLUME is on file for CNC(=C[N+](=O)[O-])NCCSCc1ccc(CN(C)C)o1 [RANITIDINE] ?
Output: 63.03

Task: Same thing, different compound: Cc1ccc(S(=O)(=O)NC(=O)NN2CC3CCCC3C2)cc1 (configuration not stated) [GLICLAZIDE]
Output: 61.27

Task: Same thing, different compound: Cc1cc(=O)n(-c2ccccc2)n1C [ANTIPYRINE]
Output: 64.5

Task: Same thing, different compound: NC(=O)c1cnccn1 [PYRAZINAMIDE]
Output: 66.4

Task: Same thing, different compound: CO[C@H]1/C=C/O[C@@]2(C)Oc3c(C)c(O)c4c(c3C2=O)C2=NC3(CCN(CC(C)C)CC3)NC2=C(NC(=O)/C(C)=C\C=C\[C@H](C)[C@H](O)[C@@H](C)[C@@H](O)[C@@H](C)[C@H](OC(C)=O)[C@@H]1C)C4=O [RIFABUTIN]
Output: 61.6

Task: Same thing, different compound: C[C@]1(Cn2ccnn2)[C@H](C(=O)O)N2C(=O)C[C@H]2S1(=O)=O [TAZOBACTAM]
Output: 63.23

Task: Same thing, different compound: O=C(N[C@H](CO)[C@H](O)c1ccc([N+](=O)[O-])cc1)C(Cl)Cl [CHLORAMPHENICOL]
Output: 63.63

###

organism: Rattus norvegicus; test: DrugMatrix - Regimen: Daily Repeat; type: toxicity, organism-based, Sprague-Dawley; set-up: regimen Daily Repeat, gender Male, age 6-8 weeks; details: in vivo, ip, 0 mg/kg, 120 h, tissue Blood, route intraperitoneal, dose level Control, time 5 day, vehicle 100 % SALINE
quantity measured: ABSOLUTE MONOCYTE (cells/µL)
Number in cells/µL, nothing else.

Task: Could you tell me which ABSOLUTE MONOCYTE is on file for CADMIUM DICHLORIDE ?
Output: 140

###

species on record: Rattus norvegicus; experiment: DrugMatrix - Regimen: Daily Repeat; type: toxicity, organism-based, Sprague-Dawley; design: regimen Daily Repeat, gender Male, age 6-8 weeks; conditions: in vivo, po, 1500 mg/kg, 120 h, tissue Blood, route oral GAVAGE, dose level High, time 5 day, vehicle .5 % CMC
quantity measured: HEMATOCRIT (%)
Number in %, nothing else.

Task: Could you tell me which HEMATOCRIT is on file for Cc1ccc(S(=O)(=O)NC(=O)NN2CC3CCCC3C2)cc1 (configuration not stated) [GLICLAZIDE] ?
Output: 37

Task: Same thing, different compound: O=C(N[C@H](CO)[C@H](O)c1ccc([N+](=O)[O-])cc1)C(Cl)Cl
Output: 35.27

Task: Same thing, different compound: NC(=O)c1cnccn1 [PYRAZINAMIDE]
Output: 40.1

Task: Same thing, different compound: C[C@]1(Cn2ccnn2)[C@H](C(=O)O)N2C(=O)C[C@H]2S1(=O)=O
Output: 36.23

Task: Same thing, different compound: Cc1cc(=O)n(-c2ccccc2)n1C [ANTIPYRINE]
Output: 35.1

Task: Same thing, different compound: CNC(=C[N+](=O)[O-])NCCSCc1ccc(CN(C)C)o1
Output: 38.9

Task: Same thing, different compound: CO[C@H]1/C=C/O[C@@]2(C)Oc3c(C)c(O)c4c(c3C2=O)C2=NC3(CCN(CC(C)C)CC3)NC2=C(NC(=O)/C(C)=C\C=C\[C@H](C)[C@H](O)[C@@H](C)[C@@H](O)[C@@H](C)[C@H](OC(C)=O)[C@@H]1C)C4=O
Output: 38.2

###

organism: Rattus norvegicus; test: DrugMatrix - Regimen: Daily Repeat; type: toxicity, organism-based, Sprague-Dawley; design: regimen Daily Repeat, gender Male, age 6-8 weeks; details: in vivo, po, 10 mg/kg, 120 h, tissue Plasma, route oral GAVAGE, dose level Low, time 5 day, […]
quantity measured: ASPARTATE AMINOTRANSFERASE (u/L)
Number in u/L, nothing else.

Task: Could you tell me which ASPARTATE AMINOTRANSFERASE is on file for CC(C)CC(N(C)C)C1(c2ccc(Cl)cc2)CCC1 (centres undefined) ?
Output: 79.33

Task: Same thing, different compound: COc1ccc2cc([C@H](C)C(=O)O)ccc2c1
Output: 145.33

Task: Same thing, different compound: COCCOC(=O)C1=C(C)NC(C)=C(C(=O)OC(C)C)C1c1cccc([N+](=O)[O-])c1 (centres undefined)
Output: 102.33

Task: Same thing, different compound: CCOC(=O)C1=C(C)NC(C)=C(C(=O)OC)C1c1cccc([N+](=O)[O-])c1 (centres undefined)
Output: 98

###

species on record: Rattus norvegicus; test: DrugMatrix - Regimen: Daily Repeat; assay type: toxicity, organism-based, Sprague-Dawley; parameters: regimen Daily Repeat, gender Male, age 6-8 weeks; details: in vivo, po, 0 mg/kg, 72 h, tissue Plasma, route oral GAVAGE, dose level Control, time 3 day, vehicle .5 % CMC
Could you please report measured ALANINE AMINOTRANSFERASE for the items listed next?
Number in u/L, nothing else.

Task: Could you tell me which ALANINE AMINOTRANSFERASE is on file for C[C@]1(Cn2ccnn2)[C@H](C(=O)O)N2C(=O)C[C@H]2S1(=O)=O ?
Output: 43.83

Task: Same thing, different compound: N=C(N)NC(=O)c1nc(Cl)c(N)nc1N [AMILORIDE]
Output: 40.17

Task: Same thing, different compound: C#C[C@]1(O)CC[C@H]2[C@@H]3CCc4cc(OC)ccc4[C@H]3CC[C@@]21C
Output: 49.17

Task: Same thing, different compound: CNC(=C[N+](=O)[O-])NCCSCc1ccc(CN(C)C)o1
Output: 49.17

Task: Same thing, different compound: O=C1CCC(N2C(=O)c3ccccc3C2=O)C(=O)N1 (stereo not given) [THALIDOMIDE]
Output: 41

###

species on record: Rattus norvegicus; assay: DrugMatrix - Regimen: Daily Repeat; assay type: toxicity, organism-based, Sprague-Dawley; set-up: regimen Daily Repeat, gender Male, age 6-8 weeks; settings: in vivo, po, 0 mg/kg, 120 h, tissue Blood, route oral GAVAGE, dose level Control, time 5 day, vehicle .5 % CMC
quantity measured: NUCLEATED RED BLOOD CELLS

Task: Could you tell me which NUCLEATED RED BLOOD CELLS is on file for C[C@]1(Cn2ccnn2)[C@H](C(=O)O)N2C(=O)C[C@H]2S1(=O)=O ?
Output: 0.17 /100WBC

Task: Same thing, different compound: C[C@](O)(CS(=O)(=O)c1ccc(F)cc1)C(=O)Nc1ccc(C#N)c(C(F)(F)F)c1 [(R)-BICALUTAMIDE]
Output: 0 /100WBC

Task: Same thing, different compound: CC(C)[C@H]1CC[C@H](C(=O)N[C@H](Cc2ccccc2)C(=O)O)CC1 [NATEGLINIDE]
Output: 0 /100WBC

Task: Same thing, different compound: OC(CCN1CCCCC1)(c1ccccc1)C1CCCCC1 (stereo not given)
Output: 0 /100WBC

Task: Same thing, different compound: CN1C(=O)COc2c(C(=O)NC3CN4CCC3CC4)cc(Cl)cc21 (stereo not given)
Output: 0.17 /100WBC

Task: Same thing, different compound: CC(=O)CC(c1ccccc1)c1c(O)c2ccccc2oc1=O (stereo not given)
Output: 0.17 /100WBC

Task: Same thing, different compound: C#C[C@]1(O)CC[C@H]2[C@@H]3CCc4cc(OC)ccc4[C@H]3CC[C@@]21C
Output: 0.33 /100WBC

Task: Same thing, different compound: CO[C@H]1/C=C/O[C@@]2(C)Oc3c(C)c(O)c4c(c3C2=O)C2=NC3(CCN(CC(C)C)CC3)NC2=C(NC(=O)/C(C)=C\C=C\[C@H](C)[C@H](O)[C@@H](C)[C@@H](O)[C@@H](C)[C@H](OC(C)=O)[C@@H]1C)C4=O
Output: 0.33 /100WBC

Task: Same thing, different compound: CNC(=C[N+](=O)[O-])NCCSCc1ccc(CN(C)C)o1
Output: 0.33 /100WBC

Task: Same thing, different compound: Clc1ccc2c(c1)C(N1CCNCC1)=Nc1ccccc1O2
Output: 0.33 /100WBC

###

species: Rattus norvegicus; experiment: DrugMatrix - Regimen: Daily Repeat; assay type: toxicity, organism-based, Sprague-Dawley; set-up: regimen Daily Repeat, gender Male, age 6-8 weeks; settings: in vivo, po, 0 mg/kg, 120 h, tissue Blood, route oral GAVAGE, dose level Control, time 5 day, vehicle .5 % CMC
quantity measured: ABSOLUTE MONOCYTE (CELLS/uL)
Number in CELLS/uL, nothing else.

Task: Could you tell me which ABSOLUTE MONOCYTE is on file for CNC(=C[N+](=O)[O-])NCCSCc1ccc(CN(C)C)o1 ?
Output: 32

Task: Same thing, different molecule: C#C[C@]1(O)CC[C@H]2[C@@H]3CCc4cc(OC)ccc4[C@H]3CC[C@@]21C
Output: 32

Task: Same thing, different molecule: CC(C)[C@H]1CC[C@H](C(=O)N[C@H](Cc2ccccc2)C(=O)O)CC1 [NATEGLINIDE]
Output: 203.17

Task: Same thing, different molecule: CO[C@H]1/C=C/O[C@@]2(C)Oc3c(C)c(O)c4c(c3C2=O)C2=NC3(CCN(CC(C)C)CC3)NC2=C(NC(=O)/C(C)=C\C=C\[C@H](C)[C@H](O)[C@@H](C)[C@@H](O)[C@@H](C)[C@H](OC(C)=O)[C@@H]1C)C4=O
Output: 32

Task: Same thing, different molecule: CN1C(=O)COc2c(C(=O)NC3CN4CCC3CC4)cc(Cl)cc21 (configuration not stated)
Output: 102.83

Task: Same thing, different molecule: CC(=O)CC(c1ccccc1)c1c(O)c2ccccc2oc1=O (configuration not stated)
Output: 276

Task: Same thing, different molecule: C[C@]1(Cn2ccnn2)[C@H](C(=O)O)N2C(=O)C[C@H]2S1(=O)=O
Output: 29.17
